Data credit: PubChem BioAssay (NCI)

# Tested on: HCT-15 colon
# test-description: NCI tumour cell line growth inhibition, 48 h
Item-by-item account of TGI

These recorded examples may help you get a feel for the data.
| molecule | assay-target | readout-label | result-value |
| --- | --- | --- | --- |
| O=C(/C=C\Sc1ccccn1)c1cccc(Br)c1 | HCT-15 colon | TGI | 3.23 µM |
| Cc1n[nH]c(=S)n1/N=C/c1ccc(-c2ccc(Cl)cc2)o1 | HCT-15 colon | TGI | > 100 µM |
| NC(=O)c1c(Br)n(C2OC(CO)C(O)C2O)c2ncnc(N)c12 (configuration not stated) | HCT-15 colon | TGI | 7.03 µM |

Case c1ccc(C2N=NN(c3ccccc3)C2N2CCCCC2)cc1 (configuration not stated) , HCT-15 colon, TGI recorded as > 100 µM

# TGI measured on HCT-15 colon for item COc1ccc(Nc2nc3cc(C(F)(F)F)ccc3n3cccc23)cc1OC = 56.1 µM

Entry CC1CCC2(OC1)OC1CC3C4CCC5CC(O)CCC5(C)C4CC(=O)OC3(C)C1C2C (configuration not stated) , tested on HCT-15 colon, has a reported TGI of > 100 µM

Tested on HCT-15 colon, the item C/C(=N\OCC(O)CNC(C)C)c1ccc2c(c1)NC(=O)CS2 (configuration not stated) showed TGI equal to > 100 µM

* * *

# Tested on: NCI-H460 lung
# test-description: NCI tumour cell line growth inhibition, 48 h
readout-label: TGI

So for N#CCC(=O)N1CCCOCCC1 , the logged TGI turned out to be > 100 µM

For record Nc1ccccc1NC(=O)c1ccc(CNC(=O)OCc2cccnc2)cc1 the listed TGI is > 100 µM

Given item C=CC(C)c1cccc(C=O)c1O (stereo not drawn) , the value recorded as its TGI is > 100 µM

* * *

# Tested on: SNB-75 CNS
# test-description: NCI tumour cell line growth inhibition, 48 h
readout-label: TGI

Worked set:
| compound | assay-target | TGI |
| --- | --- | --- |
| COC(=O)[C@@]1(C)CCC[C@]2(C)[C@H]3Cc4occc4[C@H](C)[C@@H]3CC[C@@]12O | SNB-75 CNS | > 100 µM |
| COc1ccc2cc1Oc1ccc(cc1)CC1c3cc(OC)c(cc3CCN1C)Oc1c(OC)c(OC)cc3c1C(C2)N(C)CC3 (stereo unspecified) | SNB-75 CNS | 18.2 µM |
| C[N+]1([O-])CCC(O)(C2CC2)CC1 (stereo unspecified) | SNB-75 CNS | > 100 µM |
| COC(=O)Cc1c(-c2[nH]c3ccccc3c2CC(=O)OC)[nH]c2ccccc12 | SNB-75 CNS | > 100 µM |
| Cc1nc2ccc(Cl)cc2c(Cl)c1CCCl | SNB-75 CNS | > 100 µM |

Reported TGI ( CCCNC1=C(C)C(=O)C2=C(C1=O)[C@H](COC(N)=O)[C@]1(OC)[C@@H]3N[C@@H]3CN21 ) = 24.6 µM

Measured TGI, COC(=O)/C(=N\NC(N)=O)C(C(=O)C(=O)Nc1ccccc1C(=O)OC)c1nc2ccc(C(=O)c3ccccc3)cc2[nH]c1=O (stereo unspecified) : > 100 µM

Kindly note the recorded TGI for CCOC(=O)C(C)c1nc2cc3cccnc3c(Cl)c2[nH]c1=O (stereo unspecified) , which is > 100 µM

# compound Cc1ccc(-c2nc3nc(-c4ccc(Br)cc4)nc(N4CCCNCC4)c3o2)cc1 ; its TGI = 22.4 µM

For N#CC1C(=O)C(=O)N(c2ccccc2)C1=O (stereo unspecified) the compound record lists TGI as > 100 µM

Documented TGI of COC(=O)c1c(C)c2n(c1C)C(=O)C(c1ccccc1)=C2 : > 100 µM

Quick note, TGI for CCOC(=O)CCC(NC(=O)c1ccc(Sc2nc3cc(N)cc(N)c3nc2-c2ccccc2)cc1)C(=O)OCC (stereo unspecified) landed at 63.8 µM

Kindly note the recorded TGI for CCOC(=O)/C(=C/c1ccc(C(F)(F)F)cc1)N(CC)CC , which is > 100 µM

Lab note: COc1ccc2c(c1)O/C(=C\c1ncc([N+](=O)[O-])n1C)C2=O gave TGI of 3.78 µM

For this compound ( N#CCCC1(CCC#N)CCCCCCC(CCC#N)(CCC#N)C(=O)C1=O ), measured TGI is > 100 µM

Per the records, this compound ( O=c1[nH]ccc2c1ccn2C1CC(O)C(CO)O1 (stereo unspecified) ) has TGI equal to > 100 µM

compound COc1ccc(/C=C/c2cc(OC)c(OC)c(OC)c2)cc1O[Si](C)(C)C(C)(C)C , TGI observed: > 100 µM
